Assay: Primary redox qHTS assay for identification of artifact compounds. (AID 1845223)
Conditions: Amplex Red/HRP redox cycling with DTT, fluorescence; series mostly up to 53.8 µM
Results filed as inconclusive are left out. Calls of active or inactive are those of the source. Calls follow the shape of the dose curve; as a rule, active = well fitted activation curve with a large enough effect; inconclusive = small, poorly fitted or top-dose-only effect; inactive = flat fitted curve, though single readings scatter.
measurement-name: redox activity (% of DA3003)

Illustrative cases are given below, each with its answer.
CC(=O)O[C@@H]1[C@H]2CC[C@H]3[C@@](C)(O)[C@@H]4C[C@H](O)C(C)(C)[C@@]4(O)[C@H](O)C[C@@]13C[C@@]2(C)O    inactive
NC(=O)c1ncn2c1CN=C(c1ccccc1Br)c1cc(F)ccc1-2    inactive
COC1(C[S@@](=O)c2ccccc2)CCN(CCc2c[nH]c3ccc(F)cc23)CC1    inactive
CN1C(=O)[C@@H](Cc2c[nH]c3ccccc23)N=C(c2ccccc2F)c2ccccc21    inactive

From here, focus on the item given below.
Ask: Need redox activity (% of DA3003), item OC(CNc1ccccc1)Cn1c2ccc(Br)cc2c2cc(Br)ccc21 (stereo not given)
Result: inactive
